These molecules were tested on hCA XII (Homo sapiens, UniProt O43570); pKi is the recorded read-out.
Sequence (O43570 25-354): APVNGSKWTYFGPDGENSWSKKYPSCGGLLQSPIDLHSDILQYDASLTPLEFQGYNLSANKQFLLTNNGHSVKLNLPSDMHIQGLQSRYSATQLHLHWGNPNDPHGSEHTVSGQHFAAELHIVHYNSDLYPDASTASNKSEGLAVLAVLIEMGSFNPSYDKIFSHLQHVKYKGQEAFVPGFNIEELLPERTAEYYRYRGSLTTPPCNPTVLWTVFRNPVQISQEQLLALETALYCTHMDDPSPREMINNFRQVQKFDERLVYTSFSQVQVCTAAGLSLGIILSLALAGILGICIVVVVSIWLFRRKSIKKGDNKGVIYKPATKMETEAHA
pKi: −log10 of the molar value.
Measured Endpoint: pKi

# Molecule, Reported Value
records = [
    ("COc1ccc2nccc(NNC(=O)c3ccc(S(N)(=O)=O)cc3)c2c1", 7.60),
    ("NS(=O)(=O)c1cccc(Nc2ccnc3ccc(Cl)cc23)c1 [11c]", 7.26),
    ("Cc1ccc2nccc(Nc3cccc(S(N)(=O)=O)c3)c2c1 [11a]", 7.39),
    ("NS(=O)(=O)c1ccccc1Nc1ccnc2ccc(Cl)cc12", 7.42),
    ("COc1ccc2nccc(Nc3cccc(S(N)(=O)=O)c3)c2c1 [11b]", 7.14),
    ("NS(=O)(=O)c1cccc(Nc2ccnc3cc(C(F)(F)F)cc(C(F)(F)F)c23)c1 [11d]", 7.47),
    ("Cc1ccc2nccc(Nc3ccc(C)c(S(N)(=O)=O)c3)c2c1 [11e]", 7.06),
    ("COc1ccc2nccc(Nc3ccc(C)c(S(N)(=O)=O)c3)c2c1 [11f]", 6.82),
    ("COc1ccc2nccc(Nc3ccc(S(N)(=O)=O)cc3)c2c1 [13b]", 7.88),
    ("Cc1ccc(Nc2ccnc3ccc(Cl)cc23)cc1S(N)(=O)=O [11g]", 7.03),
]
